Ref: the NTF2 design screens of Basanta et al. (2020)

Recorded measurements of protease stability score, one per entry
- assay_name: protease stability score; higher = more stable; yeast display proteolysis, trypsin and chymotrypsin;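 further: relative to predicted unfolded state with 0 unfolded-like and 1 meaning tenfold more protease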
metric: protease stability score

macromolecule_sequence: EEEKESHQWILEVYMHTVRTGDPRMIKELLDPNVKLEAENREVHGREHVLKILWTKLHEMRIEHVTVEDVEVQGNKVRVHNEVHYTFDGQRDILKTEVIATKFDGRWHFKSLREK
data_value: 0.222

macromolecule_sequence: DRREEHAVNVFEIMFVLLLTGDETLFDKLFDPHVLFIIGDKEYHGRERFSKEMLRWIEEWRIQEFKIKDVRVVGDKAEIDGRIRGRYGDKETEIELHLIVMKVDGRWLVHSIELV
data_value: 1.09

macromolecule_sequence: SDEERDFTRLIRILRDALRTGDEHKLHELLDPHTRIIFDGQHHIGWERILEWADQIDHVHFRMTLHTVDIQGDKLRADLSLDVKIQVDGRTEHRHNVMHITVQKVNGRWRIQELYYK
data_value: 1.27

macromolecule_sequence: DDIKEESRHAHEEMLKIIKTGNEEVFEEMADPDVRIILDINGRDVRSHGREEAVRFWHEFMERVKGLRIHTDDLIVVGDKIELRIHSRYNGVRTHIRMIVSKFDGVWLLTELEIRVV
data_value: 1.75

macromolecule_sequence: SEEEDMKRKLAEIFLHNELTGNEDRLMELLDPNTRMEFNGREVHGREQISEVLRRWLEEIRIDDSKLHDIRVINGVAHIDVRLRGTVDGRHTILQVHLYLFVVNGRIKSFRIEIR
data_value: 1.53
